meta.source: ChEMBL document CHEMBL1201862

system: SN12C; assay: NCI tumour cell line growth inhibition, 48 h
Active and inactive are the calls of the source. Cut-off read from the data, not from the text of the source: active = GI50 up to about 1.1 µM and inactive = higher.
Result category, one only: class 1 = active, class 0 = inactive

structure=Cc1nc2cc(Cl)c(N)cc2[nH]1 category="class 0"
structure=COc1ccc2nc3ccccc3c(NCCN(C)CCCl)c2c1 category="class 1"

Okay, now this compound:
Called result for COc1nc(N)nc2c1n(C)c[n+]2C class 0

###

system: SR; assay: NCI tumour cell line growth inhibition, 48 h
The source made the active and inactive calls. Cut-off read from the data, not from the text of the source: active = GI50 up to about 1.1 µM and inactive = higher.
Result category, one only: active, inactive

compound=COC(=O)CN1c2nc(C#N)c(C#N)nc2N(CC(=O)OC)c2nc(C#N)c(C#N)nc21 category=inactive
compound=O=[N+]([O-])c1cccc(C2=NN(c3ccccc3)C[N+](c3ccc(Br)cc3)=N2)c1 category=active
compound="O=c1[nH]c(=S)[nH]c2c(C3OC(CO)C(O)C3O)nsc12 (stereo not given)" category=inactive

Called result for CC(=O)Oc1ccc(/C=C/C(=O)OCCCOC(=O)/C=C/c2ccc(OC(C)=O)c(OC(C)=O)c2)cc1OC(C)=O inactive

Called result for Cc1nc(SCC(=O)Nc2ccccc2)c2sc(=S)n(-c3ccccc3)c2n1 inactive
